target: UniProt:Q2FV99
Non-standard residues stand in square brackets, D forms with d. Residues, ends and D or L forms follow the SMILES beside them. *: point of attachment. Bz = O=C(c1ccccc1)*; Sar = CNCC(=O)O
Quantity kind: IC50 (µM)
// note: answer is a bare numeric in µM

Examples from the recorded data:
CC(C)C[C@H](NC(=O)c1ccccc1)C(=O)N1CCC[C@H]1C(=O)N[C@@H](CCCNC(=N)N)C(=O)N[C@@H](CC(=O)O)C(=O)N[C@@H](Cc1ccccc1)C(N)=O [Compound 23, BzLPRDF] (Bz-LPRDF-NH2) ... 114
CC(C)C[C@H](NC(=O)c1ccccc1)C(=O)N1CCC[C@H]1C(=O)N[C@@H](CCCNC(=N)N)C(=O)N[C@@H](CC(=O)O)C(=O)N(C)CC(N)=O [Compound 18, BzLPRDSar] (Bz-LPRD[Sar]-NH2) ... 57.4

We now examine a further compound.
Task: Tell me its IC50 on UniProt:Q2FV99: CC(C)C[C@H](N)C(=O)N1CCC[C@H]1C(=O)N[C@@H](CCCNC(=N)N)C(=O)N[C@@H](CC(=O)O)C(=O)N(C)CC(N)=O [Compound 5, LPRD-Sar] (H-LPRD[Sar]-NH2)
Output: 18.9

* * *

target: SrtA (Staphylococcus aureus, UniProt Q2FV99); construct: His6 (N); made in house; host or cells: E. coli BL21, pET21b plasmid; assay: biochemical; parameters: species or system S. aureus; conditions: IC50, inhibitor 1 μM to 1500 μM; corrected for molar extinction coefficient
Sequence (Q2FV99 60-206): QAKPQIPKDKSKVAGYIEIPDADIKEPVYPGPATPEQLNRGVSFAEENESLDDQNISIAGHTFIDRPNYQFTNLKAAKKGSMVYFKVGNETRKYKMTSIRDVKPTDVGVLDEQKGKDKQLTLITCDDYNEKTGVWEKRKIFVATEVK
Quantity kind: IC50
In your response, put the unit directly after the numeric value.

Task: Tell me its IC50 given H-FLPRDA-NH2 [Compound 22, FLPRDA] as the entry.
Output: 185 µM
